molecular target: SIRT1 (Homo sapiens, UniProt Q96EB6); experiment: Mass spectrometry based assay to identify modulators of SIRT1 activity (deacetylation of p53-based acetylated peptide); format: biochemical; settings: SIRT1 activation; 10 nM SIRT1, 0.5 μM peptide substrate, 120 μM βNAD+, 25 minutes at 25° C.
Sequence (Q96EB6 whole entry): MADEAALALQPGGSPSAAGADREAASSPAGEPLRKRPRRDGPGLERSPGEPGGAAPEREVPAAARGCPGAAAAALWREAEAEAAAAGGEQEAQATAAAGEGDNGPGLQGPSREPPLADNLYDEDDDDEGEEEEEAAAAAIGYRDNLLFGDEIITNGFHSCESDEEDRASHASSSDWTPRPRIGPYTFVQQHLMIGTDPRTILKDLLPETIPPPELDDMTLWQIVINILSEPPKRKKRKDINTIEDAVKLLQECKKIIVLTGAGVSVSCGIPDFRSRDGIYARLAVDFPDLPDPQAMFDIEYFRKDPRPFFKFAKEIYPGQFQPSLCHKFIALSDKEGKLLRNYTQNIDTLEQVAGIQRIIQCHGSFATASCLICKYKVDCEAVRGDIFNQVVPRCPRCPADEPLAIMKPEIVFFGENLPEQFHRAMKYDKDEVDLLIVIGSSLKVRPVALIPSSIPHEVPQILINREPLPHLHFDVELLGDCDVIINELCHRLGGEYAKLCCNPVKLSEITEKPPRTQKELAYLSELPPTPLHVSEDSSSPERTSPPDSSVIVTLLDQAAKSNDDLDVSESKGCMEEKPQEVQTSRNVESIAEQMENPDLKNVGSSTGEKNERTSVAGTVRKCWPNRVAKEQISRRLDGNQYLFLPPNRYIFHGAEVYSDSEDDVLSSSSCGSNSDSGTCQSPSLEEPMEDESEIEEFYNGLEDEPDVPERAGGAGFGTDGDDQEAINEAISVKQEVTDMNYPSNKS
recorded-endpoint: EC1.5 μM

Cn1c(-c2cccc(N3CCOCC3)c2)nc2c(C(=O)Nc3ccccn3)cccc2c1=O [Compound 209]; B (EC1.5 1-25 μM)
Cn1c(-c2ncccn2)nc2c(C(=O)Nc3ccccn3)cccc2c1=O [Compound 259]; C (EC1.5>25 μM)
Cn1c(-c2cccc(C(F)(F)F)c2)nc2c(NC(=O)c3cccc(CN4CCOCC4)c3)cccc2c1=O [Compound 338]; A (EC1.5<1.0 μM)
O=C(Nc1cccc2c(=O)[nH]c(-c3ccccc3C(F)(F)F)nc12)c1cnccn1 [Compound 317]; A (EC1.5<1.0 μM)

Documented EC1.5 μM of Cn1c(-c2cccc(C(F)(F)F)c2)nc2c(NC(=O)c3cccc(N4CCCC4)n3)cccc2c1=O [Compound 342] : A (EC1.5<1.0 μM)
